Cited source for all entries: paper PMC12316891

Target: BRD4 (BD1) (Homo sapiens)
Construct: A pET28 plasmid containing residues 44–168 of BRD4 (BD1), a 6xHis tag, a TEV protease cleavage site; 6xHis (N, cleaved yes); made in house; host or cells: E. coli Rosetta (D3)
Test: Competitive HTRF TR-FRET binding assay (displacement of acetylated histone H4 peptide)
Settings: 16-point titration 0.1 nM to 10 µM, n = 2; Negative = curve could not be fitted to a sigmoidal curve; read-out: TR-FRET IC50
For each entry below, report its IC50 value.
Field: numeric (µM). Do not append units.

What value of measured IC50 is listed for Cc1ncc(CNC(=O)NCc2cccc(S(=O)(=O)NC(C)C)c2)c(O)n1 ? 0.0929

Item CCOc1ccc(-n2nc(Cc3ccncc3)nc2-c2cn(C)c(=O)c3ccccc23)cc1 has what recorded IC50? 0.552

// lookup IC50 for COc1cccc(-n2nc(-c3cscn3)nc2-c2cn(C)c(=O)c3ccccc23)c1 0.511

====

Molecular target: His6-BRD4 (BD1) (Homo sapiens, UniProt O60885)
Construct: A pET28 plasmid containing residues 44–168 of BRD4 (BD1), a 6xHis tag, a TEV protease cleavage site; made in house; host or cells: E. coli Rosetta (D3)
Test: Surface plasmon resonance (SPR) single-dose screening
Assay type: binding
Details: single dose 10 µM, n = 2
property label: SPR RESULT

As a guide, the following entries are already answered.
>  <compound>
CNC(=O)C1(C(=O)N[C@@H]2CCCC[C@H]2NC(=O)c2cnsn2)CCC1

>  <property label>
SPR RESULT

>  <reported measurement>
Negative

$$$$
>  <compound>
COc1ccc(-n2c(C)nnc2SCC(=O)NCC2(N)CCOCC2)cc1

>  <property label>
SPR RESULT

>  <reported measurement>
Positive

$$$$
>  <compound>
COc1ccc(-n2c(C)nnc2SCC(=O)NC2CCC3(CNC3)C2)cc1 (stereo not drawn)

>  <property label>
SPR RESULT

>  <reported measurement>
Negative

$$$$
>  <compound>
COc1ccc(-n2c(C)nnc2SCC(=O)NC2CCN(C(=O)c3cc(Cl)sc3Cl)CC2C)cc1 (stereo not drawn)

>  <property label>
SPR RESULT

>  <reported measurement>
Positive

$$$$
>  <compound>
CCn1nnc2cc(C(=O)N3CCC(c4nnc(CNC(=O)c5ccncn5)s4)CC3)ccc21

>  <property label>
SPR RESULT

>  <reported measurement>
Negative

$$$$

# input for lookup
State its SPR RESULT on His6-BRD4 (BD1) (Homo sapiens, UniProt O60885): COC(=O)C1(NCC(=O)Nc2nnc(C)s2)CC(C)(C)OC(C)(C)C1 Negative

====

Biological target: His6-BRD4 (BD1) (Homo sapiens)
Construct: A pET28 plasmid containing residues 44–168 of BRD4 (BD1), a 6xHis tag, a TEV protease cleavage site; made in house; host or cells: E. coli Rosetta (D3)
Test: Surface plasmon resonance (SPR) single-dose screening
Assay type: binding
Set-up: key: Positive: compounds were considered as SPR hits also when their average signal was further than two standard deviations apart from the average signal of the blank samples (1% DMSO)
Conditions: single dose 10 µM, n = 2
property label: SPR RESULT

Example cases with answers are listed next.
>  <molecule>
CCn1nnc2cc(C(=O)N3CCCN(C(=O)c4ccccc4Cl)C(c4ccccc4)C3)ccc21 (stereo not shown) [Compound 34]

>  <reported measurement>
Positive

$$$$
>  <molecule>
Cc1nnc2sc(C(=O)N3CCC4(CCC(NC(=O)Cc5csc(Cl)c5)CC4)CC3)c(N)c2c1C [Compound 60]

>  <reported measurement>
Positive

$$$$
>  <molecule>
COc1cccc(-n2nc(-c3cscn3)nc2-c2cn(C)c(=O)c3ccccc23)c1 [Compound 58]

>  <reported measurement>
Negative

$$$$
>  <molecule>
COc1ccc(-n2c(C)nnc2SCC(=O)NCc2ccc(F)c(C)c2)cc1 [Compound 19]

>  <reported measurement>
Negative

$$$$
>  <molecule>
COC(C)CC(=O)N1CCC(C2(O)CCN(C(=O)c3sc4nnc(C)c(C)c4c3N)C2)CC1 (stereo not shown) [Compound 39]

>  <reported measurement>
Negative

$$$$
>  <molecule>
COc1ccc2c(c1)N(C(=O)c1cn(C)c(=O)c3ccccc13)CC2 [Compound 15]

>  <reported measurement>
Negative

$$$$
>  <molecule>
Cc1cc(C)n2nc(NC(=O)N3CCc4cc(Cl)cc(Cl)c4C3)nc2n1 [Compound 77]

>  <reported measurement>
Positive

$$$$
>  <molecule>
CCn1nnc2cc(C(=O)N3CCC(CCNC(=O)c4nc(O)sc4C)C3)ccc21 (stereo not shown) [Compound 31]

>  <reported measurement>
Negative

$$$$

# query: SPR RESULT | item O=C(Nc1cccc(C(=O)N2CCC(Cn3cc(C4(O)CCOCC4)nn3)CC2)c1)c1ccco1 [Compound 84] | system: His6-BRD4 (BD1) (Homo sapiens) Positive

What reported SPR RESULT corresponds to COc1cccc(-n2c(C)nnc2SCC(=O)NC2CN(C(=O)C3CCOCC3)CC23CC3)c1 (stereo not shown) [Compound 32] on His6-BRD4 (BD1) (Homo sapiens)? Negative

What reported SPR RESULT corresponds to Cc1nnc2sc(C(=O)N(C)C3CN(C(=O)CCC(C)N(C)C)CC34CC4)c(N)c2c1C (stereo not shown) [Compound 59] on His6-BRD4 (BD1) (Homo sapiens)? Negative

For the record COc1ccc(-n2c(C)nnc2SCC(=O)Nc2cn(C)nc2C(N)=O)cc1 [Compound 17] , what value of SPR RESULT is listed for His6-BRD4 (BD1) (Homo sapiens)? Positive

GET /values?readout=SPR RESULT&system=His6-BRD4 (BD1) (Homo sapiens)&item= COc1ccc(C=C(CC(=O)Nc2nnc(C)s2)c2nc3ccccc3s2)cc1OC [Compound 70] Positive

Could you share what SPR RESULT was measured for Cc1cc(C)n2nc(CNC(=NCCCN3CCOCC3)N3CCC(NC(=O)CBr)C3)nc2n1 (stereo not shown) [Compound 93] , tested on His6-BRD4 (BD1) (Homo sapiens)? Negative

====

Target: BRD4 (BD1) (Homo sapiens)
Construct: A pET28 plasmid containing residues 44–168 of BRD4 (BD1), a 6xHis tag, a TEV protease cleavage site; 6xHis (N, cleaved yes); made in house; host or cells: E. coli Rosetta (D3)
Test: Differential scanning fluorimetry (DSF) single-dose thermal shift screening
Format: binding
Settings: DSF, compound 10 µM, BRD4 (BD1) 2 µM, n = 3, decimal comma; read-out: ΔTm ºC at [10 µM]
So I've got a bunch of molecules here, and I need their ΔTm at 10 µM values.
Unit °C implied. Number only.

Request: ΔTm at 10 µM, test system BRD4 (BD1) (Homo sapiens), entry COc1cccc(-n2c(C)nnc2SCC(=O)N2CCCN(C(=O)c3cc(F)c[nH]3)CC2)c1 0.43

Fill in the recorded ΔTm at 10 µM for this molecule, with BRD4 (BD1) (Homo sapiens) as test system: Cc1nonc1CC(=O)N1CC(CC(C)NC(=O)c2nsnc2O)C1 (centres unmarked) 0.43

Hello, I am looking for reported ΔTm at 10 µM with BRD4 (BD1) (Homo sapiens) for COc1ccc(-n2c(C)nnc2SCC(=O)NC2CCN(C(=O)c3cc(Cl)sc3Cl)CC2C)cc1 (centres unmarked) . Could you help? -0.23

Notebook: pull reported ΔTm at 10 µM for BRD4 (BD1) (Homo sapiens), entry CCn1nnc2cc(C(=O)N3CCC(N(C)C(=O)C4CN(C)CCO4)C3)ccc21 (centres unmarked) 0.34

Given the entry COc1cccc(-n2c(C)nnc2SCC(=O)N2CC(n3cc(-c4ccc(F)cn4)nn3)C2)c1 , what ΔTm at 10 µM was observed with BRD4 (BD1) (Homo sapiens)? 0.77

Request body: readout ΔTm at 10 µM, system BRD4 (BD1) (Homo sapiens), query COC(=O)C1(NCC(=O)Nc2nnc(C)s2)CC(C)(C)OC(C)(C)C1 . Return the value. 1.04

Requested read-out ΔTm at 10 µM, target or system BRD4 (BD1) (Homo sapiens), entry COc1ccc(NS(=O)(=O)c2cc(C(=O)Nc3ccc4nnc(C(C)C)n4c3)ccc2F)cc1 1.94

Test system BRD4 (BD1) (Homo sapiens); read-out ΔTm at 10 µM; what value for CC(NS(=O)(=O)c1cccc(-c2nnnn2C)c1)C1CCN(Cc2ccccc2)C1 (centres unmarked) ? 2.47

Give recorded ΔTm at 10 µM with BRD4 (BD1) (Homo sapiens) for the following molecule: CC(NC(=O)CC1(C)CCCO1)C1(O)CN(C(=O)c2nsnc2O)C1 (centres unmarked) 0.19

Tell me reported ΔTm at 10 µM for CCOc1ccc(-n2nc(Cc3ccncc3)nc2-c2cn(C)c(=O)c3ccccc23)cc1 , tested with BRD4 (BD1) (Homo sapiens). 2.33

Can you look up ΔTm at 10 µM on BRD4 (BD1) (Homo sapiens) for Cc1cc(C)n2nc(NC(=O)N3CCC(F)(F)C4(CCOC4)C3)nc2n1 (centres unmarked) ? 1.11

Write down the reported ΔTm at 10 µM of COc1ccc(-n2c(C)nnc2SCC(=O)Nc2cn(C)nc2C(N)=O)cc1 , test system: BRD4 (BD1) (Homo sapiens). 1.17

Request body: readout ΔTm at 10 µM, system BRD4 (BD1) (Homo sapiens), query COc1ccc(C=C(CC(=O)Nc2nnc(C)s2)c2nc3ccccc3s2)cc1OC . Return the value. 0.65

What is its ΔTm at 10 µM for BRD4 (BD1) (Homo sapiens)? Entry: CCn1nnc2cc(C(=O)N3C[C@@H](OC(C)=O)[C@@H](n4cc(CN5CCC(O)CC5)nn4)C3)ccc21 0.19
